Reported Kd is given for each of the following compounds.
Biological target: non-homologous end-joining (NHEJ) of DNA by PC-C (Ku70/80, DNA-PKcs, XRCC4, DNA ligase IV)
Assay: DNA end-joining (NHEJ) complementation assay with HeLa fraction PC-C
Details: components derived from humans; crude estimate; read-out: estimate of the Kd in the NHEJ system

# compound, result
records = [
    ("O=P(O)(O)OC1[C@@H](OP(=O)(O)O)[C@H](OP(=O)(O)O)C(OP(=O)(O)OP(=O)(O)O)[C@H](OP(=O)(O)O)[C@H]1OP(=O)(O)O (some centres unmarked) [IP7, diphosphoinositol pentakisphosphate]", "~100 µM"),
]

--- query ---
Please report the recorded Kd for O=P(O)(O)OC1C(OP(=O)(O)O)C(OP(=O)(O)O)C(OP(=O)(O)O)C(OP(=O)(O)O)C1OP(=O)(O)O (centres unmarked) .
~1 µM

src = patent US20040029130A1
